The origin of these recorded values is patent US10941182.

Measured EC50 Human APJ Receptor accompanies every entry in the list below.
TARGET_OR_SYSTEM: T1, human APJ receptor (human, UniProt P35414 1-380)
T1 sequence (looked up): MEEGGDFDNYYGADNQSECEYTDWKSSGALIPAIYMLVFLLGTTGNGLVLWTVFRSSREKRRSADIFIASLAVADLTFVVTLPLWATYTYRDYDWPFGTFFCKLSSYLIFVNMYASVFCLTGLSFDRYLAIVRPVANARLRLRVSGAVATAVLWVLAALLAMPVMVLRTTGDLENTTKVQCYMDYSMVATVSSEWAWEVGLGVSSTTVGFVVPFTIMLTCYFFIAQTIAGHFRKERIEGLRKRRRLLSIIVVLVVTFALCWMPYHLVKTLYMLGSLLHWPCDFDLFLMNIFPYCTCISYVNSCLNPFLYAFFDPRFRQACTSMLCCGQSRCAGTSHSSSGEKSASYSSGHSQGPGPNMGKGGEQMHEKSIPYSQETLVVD
ASSAY_COMMENT: cell-based or functional assay
Starred links: 1 amine or outer side, 2 acyl side, 3 side chain; linkers in the order of their positions; H or OH if unused. Non-standard residues stand in square brackets, D forms with d. Primed or numbered codes have the meaning given here. *: point of attachment. AC4Abu = α-carboxy-4-aminobutyric acid, O=C(C(CCN[*:1])C(=O)[*:3])[*:2]; Phe(4-Cl) = N[C@@H](Cc1ccc(Cl)cc1)C(=O)O; NMehArg = CN[C@@H](CCCCNC(=N)N)C(=O)O; d(β3hF) = N[C@@H](CC(=O)O)Cc1ccccc1; NMeR = CN[C@@H](CCCNC(=N)N)C(=O)O; Palmitoyl = CCCCCCCCCCCCCCCC(=O)*; hArg = N=C(N)NCCCC[C@H](N)C(=O)O; Cha = N[C@@H](CC1CCCCC1)C(=O)O; Nle = CCCC[C@H](N)C(=O)O; Pip′ = not defined here; AEEA = NCCOCCOCC(=O)O
OBSERVATION_TYPE: EC50 Human APJ Receptor (nM)

{"BINDER": "XXXQRPRLSHKGPXPF ({Acetyl-NH}[AC4Abu][Aeea][Aeea]QRP[NMeArg]LSHKGP[Nle]P[4-Cl-F]{COOH}) [SEQ ID NO: 88]", "MEAS_VALUE": 0.22}
{"BINDER": "Ac-Q[hArg][NMehArg]LSHKGP[Nle]P[Phe(4-Cl)]-OH (SMILES CCCC[C@H](NC(=O)[C@@H]1CCCN1C(=O)CNC(=O)[C@H](CCCCN)NC(=O)[C@H](Cc1c[nH]cn1)NC(=O)[C@H](CO)NC(=O)[C@H](CC(C)C)NC(=O)[C@H](CCCCNC(=N)N)N(C)C(=O)[C@H](CCCCNC(=N)N)NC(=O)[C@H](CCC(N)=O)NC(C)=O)C(=O)N1CCC[C@H]1C(=O)N[C@@H](Cc1ccc(Cl)cc1)C(=O)O) [SEQ ID NO: 74]", "MEAS_VALUE": 0.48}
{"BINDER": "Palmitoyl-[AC4Abu][AEEA][AEEA][dQ]RP[NMeR][Cha]SHKG[Pip′][Nle]P[d(β3hF)]-OH [SEQ ID NO: 568]", "MEAS_VALUE": 2.97}
